- system_name: LF 263-C catalytic domain (anthrax lethal factor) (Bacillus anthracis)
- Sequence (P15917 296-809 limits assumed): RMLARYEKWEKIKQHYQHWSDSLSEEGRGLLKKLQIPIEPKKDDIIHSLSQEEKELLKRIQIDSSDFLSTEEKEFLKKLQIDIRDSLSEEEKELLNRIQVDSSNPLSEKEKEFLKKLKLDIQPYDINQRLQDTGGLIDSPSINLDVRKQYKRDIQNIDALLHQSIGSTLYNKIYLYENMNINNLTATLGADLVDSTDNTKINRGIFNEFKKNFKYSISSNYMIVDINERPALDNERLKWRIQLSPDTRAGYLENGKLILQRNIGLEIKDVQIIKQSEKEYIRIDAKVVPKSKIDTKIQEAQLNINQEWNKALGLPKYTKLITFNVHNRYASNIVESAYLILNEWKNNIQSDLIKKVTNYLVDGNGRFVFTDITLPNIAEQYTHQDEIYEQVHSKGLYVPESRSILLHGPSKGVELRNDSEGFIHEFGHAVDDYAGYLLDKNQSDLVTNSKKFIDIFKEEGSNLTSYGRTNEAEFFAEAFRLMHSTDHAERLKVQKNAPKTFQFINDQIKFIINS
Consider the following compounds; for each one, report its Ki.
Enter your answer as a number in nM; do not include the unit.

Lab book: Ki of Cc1cc(C[C@H](CCCCN(C)Cc2ccc(F)cn2)C(=O)NO)cc(Cl)c1F noted as 1.1

Lab book: Ki of Cc1cc(N[C@H](CCCCN[C@@H](c2ncc(F)cc2F)C(C)C)C(=O)NO)cc(C)c1F noted as 0.28

Lab book: Ki of CC[C@@H](NCCCC[C@@H](Cc1cc(C)c(F)c(C)c1)C(=O)NO)c1ncc(F)cc1F noted as 0.12

Lab book: Ki of Cc1cc(C[C@H](CCCCN[C@@H](c2ccc(F)cn2)C(C)C)C(=O)NO)cc(C)c1F noted as 0.11

Lab book: Ki of CO[C@H](C[C@H](CCCCN[C@@H](c1ccc(F)cn1)C(C)C)C(=O)NO)c1ccc(F)cc1 noted as 0.62

Lab book: Ki of CO[C@H](C[C@H](CCCCN(C)Cc1ccc(Br)cn1)C(=O)NO)c1ccc(F)cc1 noted as 12.5
